Reference for the values: patent US20060193771A1

# target_under_test: T1, CD30-Fc (human)
# T1 construct: also called extracellular domain of CD30 fused with human IgG Fc
# T1 chain: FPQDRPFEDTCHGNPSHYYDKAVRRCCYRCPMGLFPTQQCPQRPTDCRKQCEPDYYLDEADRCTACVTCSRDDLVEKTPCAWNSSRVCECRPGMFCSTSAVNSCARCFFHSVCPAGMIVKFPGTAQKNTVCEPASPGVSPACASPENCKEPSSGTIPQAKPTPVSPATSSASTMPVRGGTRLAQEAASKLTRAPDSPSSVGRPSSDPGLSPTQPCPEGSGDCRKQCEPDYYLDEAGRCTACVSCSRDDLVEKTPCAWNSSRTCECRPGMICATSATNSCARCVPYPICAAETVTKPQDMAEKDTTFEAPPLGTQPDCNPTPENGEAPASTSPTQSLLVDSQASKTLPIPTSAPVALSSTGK
# measurement_notes: ELISA using CD30-Fc (equilibrium in solution)
pKd values by entry
Interpret pKd as the negative base-10 log of the concentration measured in mol/L.

These recorded examples may help you get a feel for the data.
- binder: "T13 MAb (antibody, V domains shown) VH: QVQLQQSGAELAKPGASVKMSCKASGYTFTTYWMHWVKQRPGQGLEWIGYINPSTGYTDYNEKFKDKATLTADKSSSTAYMQLSSLTSEDSAVYYCVRRGSYDGNPFAYWGQGTLVSVSA VL: DIVMTQSHKFMSTSVGDRVTITCKASQDVSTAVAWYQQKPGHSPKLLIYWASTRHTGVPDRFTGSGSGTDYTLTISSVQVEDLALYYCQQHYSTPFTFGSGTKLEIKR"
  pKd: 8.51
- binder: "T25 MAb (antibody, V domains shown) VH: QVTLKESGPGILQPSQTLSLTCSFSGFSLNTSGVGVGWIRQPSGKGLEWLAHIWWDDDERYNPVLKSRLTISKDTSSNQVFLKIANVDTADSATYYCVRSMVAWFPYWGRGTLVTVSA VL: DIVMSQSPSSLAVSVGEKFTVNCKSSQSLLYSSNQKNFLAWYQQKPGQSPKLLIYWASTRESGVPDRFIGSGSGTDFTLTISSVKAEDLAVYYCQQHYRYPWTFGGGTKLEIKR"
  pKd: 8.19

# next binder below
QUERY: Can you share its pKd? I mean this binder: T24 MAb (antibody, V domains shown) VH: QVQLQQPGAELVRPGASVKLSCKASGYSFTSYWIDWVKQRPGQGLEWIGNIYPSNAYTNYNQKFKDKATLTVDKSSSTAYMQLSSPTSEDSAVYYCTSVLDYFYAMDYWGQGTSVTVSS VL: DIQMTQTTSSLSASLGDRVTISCRASQDISNYLNWYQQKPDGTVKLLIYYTSRLHSGVPSRFSGSGSGTDYSLTISNLEQEDIATYFCQQVNTLPRTFGGGTKLEIKR
RESULT: 8.66
